Reference source: patent US6461997B1

Tested on: SASKR (russian thistle)
experiment.description: Pre-emergence herbicidal activity, cool season
Format: in vivo, Salsola kali
study.conditions: lowest tested rate with 80% or greater inhibition; rates 300, 100, 30, 10 g/ha; about 14 days
I'd appreciate it if you could supply Pre-emergence activity GR80, SASKR values for the items below.
Express the result in g/ha but write the number alone.

Prompt: Return reported Pre-emergence activity GR80, SASKR; argument: `CCSC(F)(F)S(=O)(=O)c1ncn(C(=O)N(CC)CC)n1`
Response: 300

Prompt: How about this molecule: `CCCN(CC)C(=O)n1cnc(S(=O)(=O)C(F)(F)Br)n1`
Response: 100

====

Tested on: ECHCG (barnyardgrass)
experiment.description: Pre-plant incorporated (PPI) herbicidal activity, warm season
Type: in vivo, Echinochloa crus-galli
study.conditions: Echinochloa crus-galli; PPI application, 900 g/ha; read-out: Percent inhibition ECHCG
measurement.kind: inhibition at 900 g/ha
Please don't drop the unit; write it after the number.

Prompt: Return reported inhibition at 900 g/ha; argument: `CCN(CC)C(=O)n1cnc(S(=O)(=O)C(F)(F)Br)n1`
Response: 100%

Prompt: How about this compound: `C=C(Br)CC(F)(F)S(=O)(=O)c1ncn(C(=O)N(CC)CC)n1`
Response: 100%

Prompt: How about this compound: `CCN(CC)C(=O)n1cnc(S(=O)(=O)C(F)F)n1`
Response: 90%

Prompt: How about this compound: `CCSC(F)(F)S(=O)(=O)c1ncn(C(=O)N(CC)CC)n1`
Response: 100%

Prompt: How about this compound: `C=C(C)CC(F)(F)S(=O)(=O)c1ncn(C(=O)N(CC)CC)n1`
Response: 100%

Prompt: How about this compound: `C=CCC(F)(F)S(=O)(=O)c1ncn(C(=O)N(CC)CC)n1`
Response: 100%

====

System: wheat (TRZAW)
experiment.description: Selectivity test, PPI, cool season crop
Type: in vivo, Triticum aestivum
study.conditions: PPI application, 100 g/ha
measurement.kind: Percent inhibition TRZAW (%)
Express the result in % but write the number alone.

Prompt: Return reported Percent inhibition TRZAW; argument: `C=C(CC(F)(F)S(=O)(=O)c1ncn(C(=O)N(CC)CC)n1)C[Si](C)(C)C`
Response: 0

Prompt: How about this molecule: `CCN(CC)C(=O)n1cnc(S(=O)(=O)C(F)(F)SCCOC)n1`
Response: 20

Prompt: How about this molecule: `CCN(CC)C(=O)n1cnc(S(=O)(=O)C(F)(F)SCc2ccccc2)n1`
Response: 0

Prompt: How about this molecule: `CCN(CC)C(=O)n1cnc(S(=O)(=O)C(F)(F)SCC(=O)OC)n1`
Response: 0

Prompt: How about this molecule: `CCN(CC)C(=O)n1cnc(S(=O)(=O)C(F)(F)C(F)(F)Br)n1`
Response: 10

Prompt: How about this molecule: `CCN(CC)C(=O)n1cnc(S(=O)(=O)C(F)(F)C(F)F)n1`
Response: 10

Prompt: How about this molecule: `CCN(CC)C(=O)n1cnc(S(=O)(=O)C(F)(F)F)n1`
Response: 0

Prompt: How about this molecule: `CCN(CC)C(=O)n1cnc(S(=O)(=O)C(F)(F)Cl)n1`
Response: 0

Prompt: How about this molecule: `CCN(CC)C(=O)n1cnc(S(=O)(=O)C(F)(F)SC)n1`
Response: 0
